FYI, the data here is from patent US9073855B2.

TARGET_DESC: GST-Bcl-2 (Homo sapiens, UniProt P10415)
Sequence (P10415 whole entry): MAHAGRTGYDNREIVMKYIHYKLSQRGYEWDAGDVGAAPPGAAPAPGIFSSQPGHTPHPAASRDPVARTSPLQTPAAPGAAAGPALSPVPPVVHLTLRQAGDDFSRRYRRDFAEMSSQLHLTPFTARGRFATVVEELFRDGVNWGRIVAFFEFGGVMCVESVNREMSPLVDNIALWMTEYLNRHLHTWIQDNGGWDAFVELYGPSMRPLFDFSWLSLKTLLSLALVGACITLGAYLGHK
ASSAY_NOTES: TR-FRET binding assay, GST-Bcl-2 with F-Bak peptide probe
CONDITION: TR-FRET Binding Affinity, GST-Bcl-2, F-Bak peptide probe

| COMPOUND | TARGET_DESC | VALUE_MODIFIER | Ki / nM |
| --- | --- | --- | --- |
| CN(C)CC(=O)N1CCO[C@@H](COc2ncc(S(=O)(=O)NC(=O)c3ccc(N4CCN(CC5=C(c6ccc(Cl)cc6)CC(C)(C)CC5)CC4)cc3Oc3cccc4[nH]cnc34)cc2Cl)C1 | GST-Bcl-2 (Homo sapiens, UniProt P10415) | < | 0.01 |
| CC1(C)CCC(CN2CCN(c3ccc(C(=O)NS(=O)(=O)c4ccc(NC5CCN(C6CCCC6)CC5)c([N+](=O)[O-])c4)c(Oc4ccc5[nH]ccc5c4)c3)CC2)=C(c2ccc(Cl)cc2)C1 | GST-Bcl-2 (Homo sapiens, UniProt P10415) | = | 0.14 |
| CC1(C)CCC(CN2CCN(c3ccc(C(=O)NS(=O)(=O)c4ccc(NC5CCS(=O)(=O)C5)c([N+](=O)[O-])c4)c(Oc4cccc5[nH]ccc45)c3)CC2)=C(c2ccc(Cl)cc2)C1 (centres unmarked) | GST-Bcl-2 (Homo sapiens, UniProt P10415) | = | 0.425 |
| CC(C)N(CCOc1ccc(-c2ccc(Cl)cc2)c(CN2CCN(c3ccc(C(=O)NS(=O)(=O)c4ccc(NCC5CCOCC5)c([N+](=O)[O-])c4)c(Oc4ccccc4)c3)CC2)c1)C(C)C | GST-Bcl-2 (Homo sapiens, UniProt P10415) | = | 0.101 |
| CN1CCC(Nc2ccc(S(=O)(=O)NC(=O)c3ccc(N4CCN(CC5=C(c6ccc(Cl)cc6)CC(C)(C)CC5)CC4)cc3Oc3ccccc3)cc2[N+](=O)[O-])CC1 | GST-Bcl-2 (Homo sapiens, UniProt P10415) | = | 0.026 |
| CC1(C)CCC(c2ccc(Cl)cc2)=C(CN2CCN(c3ccc(C(=O)NS(=O)(=O)c4ccc(NCC5CCOCC5)c([N+](=O)[O-])c4)c(Oc4ccc5[nH]ccc5c4)c3)CC2)C1 | GST-Bcl-2 (Homo sapiens, UniProt P10415) | = | 0.365 |
| CC1(C)CCC(CN2CCN(c3ccc(C(=O)NS(=O)(=O)c4cc(F)c(NCC5CCOCC5)cc4Cl)c(Oc4ccc5[nH]ccc5c4)c3)CC2)=C(c2ccc(Cl)cc2)C1 | GST-Bcl-2 (Homo sapiens, UniProt P10415) | = | 256 |
| CC1(C)CCC(CN2CCN(c3ccc(C(=O)NS(=O)(=O)c4cnc(OCCN5CCOCC5)c(C#N)c4)c(Oc4cccc5[nH]ccc45)c3)CC2)=C(c2ccc(Cl)cc2)C1 | GST-Bcl-2 (Homo sapiens, UniProt P10415) | = | 0.38 |
| CN1CCC(Nc2ccc(S(=O)(=O)NC(=O)c3ccc(N4CCN(Cc5cc(OCCO)ccc5-c5ccc(Cl)cc5)CC4)cc3Oc3cccc4[nH]ccc34)cc2[N+](=O)[O-])CC1 | GST-Bcl-2 (Homo sapiens, UniProt P10415) | = | 0.057 |
| O=C(NS(=O)(=O)c1ccc(NCC2CCOCC2)c([N+](=O)[O-])c1)c1ccc(N2CCN(Cc3cc(CN4CCCC4)ccc3-c3ccc(Cl)cc3)CC2)cc1Oc1cccc2[nH]ccc12 | GST-Bcl-2 (Homo sapiens, UniProt P10415) | = | 0.194 |
| CN(C)CCNc1ccc(S(=O)(=O)NC(=O)c2ccc(N3CCN(Cc4ccccc4-c4ccc(Cl)cc4)CC3)cc2Oc2ccccc2)cc1[N+](=O)[O-] | GST-Bcl-2 (Homo sapiens, UniProt P10415) | = | 0.265 |
| O=C(NS(=O)(=O)c1ccc(NCC2CCOCC2)c(S(=O)(=O)C(F)(F)F)c1)c1ccc(N2CCN(Cc3ccccc3-c3ccc(Cl)cc3)CC2)cc1Oc1ccccc1 | GST-Bcl-2 (Homo sapiens, UniProt P10415) | = | 5.62 |
| CC1(C)CCC(CN2CCN(c3ccc(C(=O)NS(=O)(=O)c4ccc(NC5CCN(C6CCOCC6)CC5)c([N+](=O)[O-])c4)c(Oc4cccc5[nH]cnc45)c3)CC2)=C(c2ccc(Cl)cc2)C1 | GST-Bcl-2 (Homo sapiens, UniProt P10415) | = | 0.046 |
| CC1(C)CCC(CN2CCN(c3ccc(C(=O)NS(=O)(=O)c4ccc(N[C@@H]5CCN(Cc6ccccc6)C[C@@H]5O)c([N+](=O)[O-])c4)c(Oc4ccc5[nH]ccc5c4)c3)CC2)=C(c2ccc(Cl)cc2)C1 | GST-Bcl-2 (Homo sapiens, UniProt P10415) | = | 0.329 |
| CC1(C)CCC(CN2CCN(c3ccc(C(=O)NS(=O)(=O)c4ccc(N5CCOCC5)c([N+](=O)[O-])c4)c(Oc4ccc5[nH]ccc5c4)c3)CC2)=C(c2ccc(Cl)cc2)C1 | GST-Bcl-2 (Homo sapiens, UniProt P10415) | = | 3.31 |
| CN1CCC(Nc2ccc(S(=O)(=O)NC(=O)c3ccc(N4CCN(CC5=C(c6ccc(Cl)cc6)CC(C)(C)CC5)CC4)cc3Oc3cccc4[nH]ccc34)cc2[N+](=O)[O-])CC1 | GST-Bcl-2 (Homo sapiens, UniProt P10415) | = | 0.056 |
| CC(C)Oc1cc(-c2ccc(Cl)cc2)c(CN2CCN(c3ccc(C(=O)NS(=O)(=O)c4ccc(NCC5CCOCC5)c([N+](=O)[O-])c4)c(Oc4ccc5[nH]ccc5c4)c3)CC2)cn1 | GST-Bcl-2 (Homo sapiens, UniProt P10415) | = | 74.9 |
| CN(C)CCOc1ccc(-c2ccc(Cl)cc2)c(CN2CCN(c3ccc(C(=O)NS(=O)(=O)c4ccc(NC5CCN(C)CC5)c([N+](=O)[O-])c4)c(Oc4ccccc4)c3)CC2)c1 | GST-Bcl-2 (Homo sapiens, UniProt P10415) | = | 0.009 |
| CN(C)CC(=O)N1CC[C@@H](Nc2ccc(S(=O)(=O)NC(=O)c3ccc(N4CCN(CC5=C(c6ccc(Cl)cc6)CC(C)(C)CC5)CC4)cc3Oc3cccc4[nH]cnc34)cc2[N+](=O)[O-])C1 | GST-Bcl-2 (Homo sapiens, UniProt P10415) | < | 0.01 |
| CC1(C)CCC(CN2CCN(c3ccc(C(=O)NS(=O)(=O)c4cnc(OCC5(F)CCOCC5)c(C#N)c4)c(Oc4cccc5[nH]ncc45)c3)CC2)=C(c2ccc(Cl)cc2)C1 | GST-Bcl-2 (Homo sapiens, UniProt P10415) | = | 0.035 |
